# target-of-assay: T1, human CD70 on CD70 positive cell lines (human, UniProt P32970 1-193)
# T1 sequence (looked up): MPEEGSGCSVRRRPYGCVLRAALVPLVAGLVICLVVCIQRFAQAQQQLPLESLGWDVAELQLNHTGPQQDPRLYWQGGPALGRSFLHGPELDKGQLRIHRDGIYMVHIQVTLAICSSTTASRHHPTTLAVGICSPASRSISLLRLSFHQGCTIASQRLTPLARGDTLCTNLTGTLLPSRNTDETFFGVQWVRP
# test-details: cell-based or functional assay
Below, each of the binders is paired with its reported cytotoxicity IC50, Caki-1 cells value.
Return type: number; implicit unit ng/mL.

Could you tell me which cytotoxicity IC50, Caki-1 cells is on file for c1F6(293)-F8 (c1F6 conjugated to vcMMAF, eight drug units per antibody) (antibody, V domains shown, vcMMAF conjugated, loading level of eight drug units per antibody; attachment residues not stated) VH: QIQLVQSGPEVKKPGETVKISCKASGYTFTNYGMNWVKQAPGKGLKWMGWINTYTGEPTYADAFKGRFAFSLETSASTAYLQINNLKNEDTATYFCARDYGDYGMDYWGQGTSVTVSS VL: DIVLTQSPASLAVSLGQRATISCRASKSVSTSGYSFMHWYQQKPGQPPKLLIYLASNLESGVPARFSGSGSGTDFTLNIHPVEEEDAATYYCQHSREVPWTFGGGTKLEIKR ? 1.8

State the recorded cytotoxicity IC50, Caki-1 cells for this entry: h1F6 HMLA-F8 (humanized 1F6 derivative HMLA, hVHM and hVLA, conjugated to vcMMAF, eight drug units per antibody) (antibody, human IgG1, kappa, V domains shown, vcMMAF conjugated, loading level of eight drug units per antibody; attachment residues not stated) VH: QVQLVQSGAEVKKPGASVKVSCKASGYTFTNYGMNWVRQAPGQGLKWMGWINTYTGEPTYADAFKGRFAFSLDTSTSTAYMELRSLRSDDTAVYYCARDYGDYGMDYWGQGTTVTVSS VL: DIVMTQSPDSLAVSLGERATINCRASKSVSTSGYSFMHWYQQKPGQPPKLLIYLASNLESGVPDRFSGSGSGTDFTLTISSLQAEDVAVYYCQHSREVPWTFGQGTKVEIKR 1.8

# get_value(readout='cytotoxicity IC50, Caki-1 cells', item= h1F6 HHLA-F8 (HHLA conjugated to vcMMAF, eight drug units per antibody) (antibody, human IgG1, kappa, V domains shown, vcMMAF conjugated, loading level of eight drug units per antibody; attachment residues not stated) VH: QVQLVQSGAEVKKPGASVKVSCKASGYTFTNYGMNWVRQAPGQGLEWMGWINTYTGEPTYADAFKGRFAFSLDTSTSTAYLQINSLRSDDTAVYYCARDYGDYGMDYWGQGTTVTVSS VL: DIVMTQSPDSLAVSLGERATINCRASKSVSTSGYSFMHWYQQKPGQPPKLLIYLASNLESGVPDRFSGSGSGTDFTLTISSLQAEDVAVYYCQHSREVPWTFGQGTKVEIKR ) 1.4
